target: TcPRAC (Trypanosoma cruzi, UniProt Q4DA80); construct: made in house; assay: D-AAO/HRP microplate test of racemisation inhibition; format: biochemical; settings: concentration giving 50% inhibition of racemisation, 20 mM L-Proline
Sequence (Q4DA80 32-423): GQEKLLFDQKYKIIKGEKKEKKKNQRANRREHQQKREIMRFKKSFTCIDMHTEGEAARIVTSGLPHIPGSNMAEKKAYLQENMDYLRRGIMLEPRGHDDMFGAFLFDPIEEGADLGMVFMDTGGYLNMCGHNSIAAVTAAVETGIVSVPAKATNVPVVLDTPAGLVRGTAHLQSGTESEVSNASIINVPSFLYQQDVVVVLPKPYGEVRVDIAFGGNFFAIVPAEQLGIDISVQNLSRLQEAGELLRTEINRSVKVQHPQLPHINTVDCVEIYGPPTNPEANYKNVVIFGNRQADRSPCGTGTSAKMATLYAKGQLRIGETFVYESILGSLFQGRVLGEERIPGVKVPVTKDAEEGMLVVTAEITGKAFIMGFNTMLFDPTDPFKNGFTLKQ
propertyName: IC50 (µM)
A number alone suffices; assume µM.

Recorded IC50 for O=C(O)c1ccc[nH]1 , please?
170

----------
target: rTcPRACA (Trypanosoma cruzi)
Sequence (Q4DA80 32-423): as above
propertyName: pKi
Keep in mind that pKi stands for -log10 of concentration in molar terms.

Recorded pKi for O=C(O)c1ccc[nH]1 , please?
5.24

----------
target: TcPRAC (Trypanosoma cruzi); construct: made in house; test: D-AAO/HRP microplate test of racemisation inhibition; type: biochemical; settings: concentration giving 50% inhibition of racemisation, 40 mM L-Proline
propertyName: pIC50
Keep in mind that pIC50 stands for -log10 of concentration in molar terms.

Recorded pIC50 for O=C(O)c1ccc[nH]1 , please?
3.66
